Reported IC50 by item:
# System: Recombinant human PDE4B (Homo sapiens (Human))
# Sequence (Q07343 305-736 limits assumed): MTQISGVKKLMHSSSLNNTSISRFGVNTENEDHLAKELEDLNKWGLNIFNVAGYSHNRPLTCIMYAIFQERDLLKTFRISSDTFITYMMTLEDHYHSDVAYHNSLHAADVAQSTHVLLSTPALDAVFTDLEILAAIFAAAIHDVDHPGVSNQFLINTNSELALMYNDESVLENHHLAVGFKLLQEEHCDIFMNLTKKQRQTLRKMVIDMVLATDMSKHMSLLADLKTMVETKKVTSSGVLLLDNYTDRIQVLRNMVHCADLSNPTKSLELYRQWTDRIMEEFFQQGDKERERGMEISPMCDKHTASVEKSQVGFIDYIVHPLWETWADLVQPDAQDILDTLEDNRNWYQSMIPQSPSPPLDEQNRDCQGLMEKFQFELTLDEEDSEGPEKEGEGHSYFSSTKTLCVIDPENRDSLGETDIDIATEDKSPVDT
# Protocol: Inhibitory activity against PDE 4B in vitro (fluorescence polarization, Transcreener AMP2/GMP2)
# Condition info: 1 μM cAMP
Readout: IC50 (nM)

[[record]]
compound = "CCOc1cc(C(CS(C)(=O)=O)n2c(=O)oc3cc(-c4ccccc4F)cnc32)ccc1OC (stereo not shown) [WX071]"
readout = "IC50"
sign = "="
test_result = 0.74

[[record]]
compound = "CCOc1cc([C@@H](CS(C)(=O)=O)n2c(=O)n(CCO)c3cc(-c4ccccc4F)cnc32)ccc1OC [WX059]"
readout = "IC50"
sign = "="
test_result = 2.02

[[record]]
compound = "CCOc1cc([C@@H](CS(C)(=O)=O)n2c(=O)[nH]c3cc(C4=CCN(C(=O)OC(C)(C)C)CC4)cnc32)ccc1OC [WX040]"
readout = "IC50"
sign = "="
test_result = 10.4

[[record]]
compound = "CCOc1cc([C@@H](CS(C)(=O)=O)n2c(=O)[nH]c3cc(-c4ccccc4)cnc32)ccc1OC [WX010]"
readout = "IC50"
sign = "="
test_result = 2.6

[[record]]
compound = "CCOc1cc([C@@H](CS(C)(=O)=O)n2c(=O)[nH]c3cc(-c4nccc(C)n4)cnc32)ccc1OC [WX028]"
readout = "IC50"
sign = "="
test_result = 9.7

[[record]]
compound = "CCOc1cc([C@@H](CS(C)(=O)=O)n2c(=O)[nH]c3c(Cc4ccccc4F)ccnc32)ccc1OC [WX068]"
readout = "IC50"
sign = "="
test_result = 2.24

[[record]]
compound = "CCOc1cc([C@@H](CS(C)(=O)=O)n2c(=O)[nH]c3cc(Oc4ccccc4C(F)(F)F)cnc32)ccc1OC [WX043]"
readout = "IC50"
sign = "="
test_result = 2.53

[[record]]
compound = "CCOc1cc([C@@H](CS(C)(=O)=O)n2c(=O)[nH]c3cc(CO)cnc32)ccc1OC [WX023]"
readout = "IC50"
sign = "="
test_result = 68.1

[[record]]
compound = "CCOc1cc(C(CS(C)(=O)=O)n2c(=O)[nH]c3cc(-c4ccccc4)cnc32)ccc1OC(F)F (stereo not shown) [WX074]"
readout = "IC50"
sign = "="
test_result = 1.03

[[record]]
compound = "CCOc1cc(C(CS(C)(=O)=O)n2c(=O)[nH]c3c(-c4ccccc4)ccnc32)ccc1OC(F)F (stereo not shown) [WX078]"
readout = "IC50"
sign = "<"
test_result = 0.5

